The reported measurements were obtained from PubChem BioAssay AID1159580.

- assayRemarks: chemical genetic growth profiling, strain panel (AID 1159580);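 also: tested at 20 µM; growth read once vehicle control cultures reached saturation at 30 °C; 1 = growth at the plate median or of vehicle wells; lower values mean less growth of the strain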
- details: S. cerevisiae deletion strains, growth OD, locus YPL031C, strain PHO85, stronger effect = lower value
Hit rate of the full screen: of about 5,500 compounds, about 2,000 (36%) were called active. About 18% were inconclusive and are not listed. The list shows a part of the results.
assayReadout: normalized growth

Cc1ccc(S(=O)(=O)Nc2ccc(Oc3ccc(F)cc3)cc2)cc1 ... 0.913 (inactive)
O=S(=O)(Nc1ccc(Oc2ccc(OC(F)(F)F)cc2)cc1)c1cccc(Cl)c1 ... 0.95 (inactive)
CS(=O)(=O)/C(C#N)=C/c1ccccc1OCc1c(Cl)cccc1Cl ... 0.934 (inactive)
N#Cc1ccc(NC(=O)Nc2cccc3ccccc23)cc1 ... 0.92 (inactive)
O=C(CCn1c(=O)oc2ccccc21)Sc1ccc(C(F)(F)F)cc1 ... 0.732 (inactive)
CC1C/C(=N/Nc2ccc(Br)cc2)c2cc(Cl)ccc2S1(=O)=O (centres undefined) ... 0.868 (inactive)
Cc1ccc(N2C(=O)CSC2c2ccc(Cl)c(Cl)c2)cc1Cl (centres undefined) ... 0.957 (inactive)
COc1ccc(OC)c(-c2ccn[nH]2)c1OCc1ccccc1 ... 0.87 (inactive)

In the following, a different compound is considered.
Qu. So what does the record say about normalized growth for Cc1c(S(=O)(=O)c2ccc(Cl)cc2)csc1C(=O)NNc1cccc(Cl)c1 ?
Ans. 0.852 (inactive)
